Study System: KRAS WT (Homo sapiens, UniProt P01116+P62937)
Sequence (P01116 1-169 isoform P01116-2 limits assumed): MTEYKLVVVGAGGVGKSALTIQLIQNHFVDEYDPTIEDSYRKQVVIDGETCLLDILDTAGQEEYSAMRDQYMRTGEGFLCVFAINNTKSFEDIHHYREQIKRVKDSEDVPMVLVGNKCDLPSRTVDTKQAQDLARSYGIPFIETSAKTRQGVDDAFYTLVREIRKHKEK
Sequence (P62937 whole entry): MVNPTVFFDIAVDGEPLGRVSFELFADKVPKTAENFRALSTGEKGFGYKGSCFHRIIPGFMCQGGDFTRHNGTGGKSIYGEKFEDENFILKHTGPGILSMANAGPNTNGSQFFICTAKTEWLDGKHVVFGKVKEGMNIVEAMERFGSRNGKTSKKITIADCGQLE
Protocol Text: Disruption of BRAF RBD interaction with Ras (FRET / MOA assay, with Cyclophilin A)
Assay type: biochemical
Assay Conditions: KRAS WT FRET data IC50, KRAS WT
pIC50: −log10 of the molar value.
Each entry below carries its recorded pIC50.

Compound: CCn1c(-c2cnccc2COC)c2c3cc(ccc31)-c1cc(O)cc(c1)C[C@H](NC(=O)[C@H](C(C)C)N(C)C(=O)OC1CCOC1)C(=O)N1CCC[C@H](N1)C(=O)OCC(C)(C)C2 (some centres unmarked)
pIC50: 6.00 to 7.00

Compound: CCn1c(-c2cccnc2[C@H](C)OC)c2c3cc(ccc31)-c1csc(n1)C[C@H](NC(=O)[C@H](C(C)C)N(C)C(=O)N1CC(N)(C#N)C1)C(=O)N1CCC[C@H](N1)C(=O)OCC(C)(C)C2
pIC50: 6.00 to 7.00

For this compound ( `CCn1c(-c2cnccc2COC)c2c3cc(ccc31)-c1cc(O)cc(c1)C[C@H](NC(=O)[C@H](C(C)C)N(C)C(=O)[C@H]1CCN(S(C)(=O)=O)C1)C(=O)N1CCC[C@H](N1)C(=O)OCC(C)(C)C2` ), measured pIC50 is 6.00 to 7.00

Notebook: `CCn1c(-c2ccccc2CCOC)c2c3cc(ccc31)-c1cc(O)cc(c1)C[C@H](NC(=O)[C@H](C(C)C)N(C)C(=O)CCN)C(=O)N1CCC[C@H](N1)C(=O)OCC(C)(C)C2` , pIC50 read as 5.00 to 6.00

Per the records, this compound ( `CCn1c(-c2cnccc2COC)c2c3cc(ccc31)-c1cc(O)cc(c1)C[C@H](NC(=O)[C@H](C(C)C)N(C)C(=O)[C@H]1CCN(C)C1)C(=O)N1CCC[C@H](N1)C(=O)OCC(C)(C)C2` ) has pIC50 equal to 6.00 to 7.00
